Data origin, for the record: paper PMC9516332

System: 134 cancer cell lines
assay-remarks: Cell viability assay (ATPlite, 72 hours), IC50 on cancer cell line panel
measurement-context: Homo sapiens, CCF-STTG1, read-out: IC50 in cell proliferation assay, cell line CCF-STTG1
parameter-measured: pIC50
# log scale: pIC50 equals minus log10 of the concentration in mol/L

compound	target	value-observed
COc1ccc(CN2C3CC2CN(c2ccc(-c4cc(OCC(C)(C)O)cn5ncc(C#N)c45)cn2)C3)cn1 [selpercatinib]	134 cancer cell lines	5.10

# context switch: different compound, same pIC50
input: Value lookup for pIC50; key = Cc1cc(Nc2ncc(Cl)c(Nc3ccccc3S(=O)(=O)C(C)C)n2)c(OC(C)C)cc1C1CCNCC1 [ceritinib]
output: 5.35
